measurementNotes: Volume of distribution at steady state in rat at 4 mg/kg, iv
Type: ADME, organism-based
studyConditions: in vivo, read-out: Vdss
valueKind: Vd (L/kg)
Just the number in L/kg, nothing appended.

Reported Vd ( NS(=O)(=O)c1c(S(=O)(=O)C2CNC2)ccc(-c2ccc(C3CCNCC3)cc2)c1-c1nn[nH]n1 ) = 0.34

###

measurementNotes: Clearance in rat at 1 mg/kg, iv
Format: ADME, organism-based
studyConditions: in vivo
Listing of recorded clearance by entry.
Just the number in mL/min/kg, nothing appended.

• NCCS(=O)(=O)c1ccc(-c2cccc3sc(N)nc23)c(-c2nn[nH]n2)c1S(N)(=O)=O = 32.1

--- query ---
Reported clearance ( NS(=O)(=O)c1c(S(=O)(=O)C2CCNCC2)ccc(-c2ccc(C3CCNCC3)cc2)c1-c1nnn[nH]1 ) = 3.8

###

measurementNotes: Volume of distribution at steady state in rat at 1 mg/kg, iv
Format: ADME, organism-based
studyConditions: in vivo, read-out: Vdss
valueKind: Vd (L/kg)
Just the number in L/kg, nothing appended.

* NS(=O)(=O)c1c(S(=O)(=O)C2CCNCC2)ccc(-c2ccc(C3CCNCC3)cc2)c1-c1nnn[nH]1 | 0.18

--- query ---
Reported Vd ( NCCS(=O)(=O)c1ccc(-c2cccc3sc(N)nc23)c(-c2nn[nH]n2)c1S(N)(=O)=O ) = 0.46

###

System: Klebsiella pneumoniae
measurementNotes: Antibacterial activity against VIM-1 expressing Klebsiella pneumoniae IHMA599644 assessed as inhibition of bacterial growth in presence of IMI by absorbance based assay
Format: functional
Listing of recorded MITC95 by entry.
Just the number in µM, nothing appended.

Use the examples below as a reference point.
• NCCS(=O)(=O)c1ccc(-c2ccc(C3CCNCC3)cc2)c(-c2nn[nH]n2)c1S(N)(=O)=O = 3.13
• NS(=O)(=O)c1c(S(=O)(=O)C2CCNCC2)ccc(-c2ccc(C3CCNCC3)cc2)c1-c1nnn[nH]1 = 3.13
• NS(=O)(=O)c1c(S(=O)(=O)C2CNC2)ccc(-c2ccc(C3CCNCC3)cc2)c1-c1nn[nH]n1 = 1.56
• NCCS(=O)(=O)c1ccc(-c2cccc3sc(N)nc23)c(-c2nn[nH]n2)c1S(N)(=O)=O = 3.13
• Cc1ccc(-c2ccc(S(=O)(=O)C3CNC3)c(S(N)(=O)=O)c2-c2nn[nH]n2)c2nc(N)[nH]c12 = 1.56
• NS(=O)(=O)c1c(C(F)(F)F)ccc(-c2ccc(C3CCNCC3)cc2)c1-c1nn[nH]n1 = 1.9
• NS(=O)(=O)c1cccc(-c2ccc(C3CCNCC3)cc2)c1-c1nn[nH]n1 = 38
• Cc1ccc(-c2cccc(S(N)(=O)=O)c2-c2nnn[nH]2)cc1 = 127

Reported MITC95 ( CS(=O)(=O)c1ccc(-c2ccc(C3CCNCC3)cc2)c(-c2nnn[nH]2)c1S(N)(=O)=O ) = 3.13

###

measurementNotes: Inhibition of Metallo-beta-lactamase VIM-1 (unknown origin)
Design: species or system Bacteria
// assign Fulfilled if IC50 falls strictly below 0.3 nM, else Not fulfilled (ties count as Not fulfilled)

Please review the entries below; each comes with its answer.
* NS(=O)(=O)c1c(S(=O)(=O)C2CCNCC2)ccc(-c2ccc(C3CCNCC3)cc2)c1-c1nnn[nH]1 | Not fulfilled
* NS(=O)(=O)c1c(CC2CCNCC2)ccc(-c2ccc(C3CCNCC3)cc2)c1-c1nn[nH]n1 | Not fulfilled

Task: Please let me know if NCCS(=O)(=O)c1ccc(-c2cccc3sc(N)nc23)c(-c2nn[nH]n2)c1S(N)(=O)=O shows IC50 below 0.3 nM.
Output: Not fulfilled

Task: Please let me know if NCCS(=O)(=O)c1ccc(-c2ccc(C3CCNCC3)cc2)c(-c2nn[nH]n2)c1S(N)(=O)=O shows IC50 below 0.3 nM.
Output: Fulfilled

Task: Please let me know if CS(=O)(=O)c1ccc(-c2ccc(C3CCNCC3)cc2)c(-c2nnn[nH]2)c1S(N)(=O)=O shows IC50 below 0.3 nM.
Output: Fulfilled

Task: Please let me know if NS(=O)(=O)c1cccc(-c2ccc(C3CCNCC3)cc2)c1-c1nn[nH]n1 shows IC50 below 0.3 nM.
Output: Not fulfilled

Task: Please let me know if Cc1ccc(-c2ccc(S(=O)(=O)C3CNC3)c(S(N)(=O)=O)c2-c2nn[nH]n2)c2nc(N)[nH]c12 shows IC50 below 0.3 nM.
Output: Fulfilled

Task: Please let me know if NS(=O)(=O)c1c([S+]([O-])C2CCNCC2)ccc(-c2ccc(C3CCNCC3)cc2)c1-c1nnn[nH]1 (stereo not drawn) shows IC50 below 0.3 nM.
Output: Not fulfilled

###

measurementNotes: Unbound fraction in rat plasma at 4 mg/kg, iv
Assay type: ADME, organism-based
valueKind: fraction unbound
Just the number, please, no unit after it.

Reported fraction unbound ( NS(=O)(=O)c1c(S(=O)(=O)C2CNC2)ccc(-c2ccc(C3CCNCC3)cc2)c1-c1nn[nH]n1 ) = 0.55

###

measurementNotes: AUC in rat at 4 mg/kg, iv
Assay type: ADME, organism-based
studyConditions: in vivo
valueKind: AUC (µM·h)
Just the number in µM·h, nothing appended.

Reported AUC ( NS(=O)(=O)c1c(S(=O)(=O)C2CNC2)ccc(-c2ccc(C3CCNCC3)cc2)c1-c1nn[nH]n1 ) = 15.6

###

measurementNotes: AUC in rhesus monkey at 1 mg/kg, iv
Assay type: ADME, organism-based, Macaca mulatta
studyConditions: in vivo
valueKind: AUC (µM·h)
Just the number in µM·h, nothing appended.

Reported AUC ( NCCS(=O)(=O)c1ccc(-c2cccc3sc(N)nc23)c(-c2nn[nH]n2)c1S(N)(=O)=O ) = 10.2

###

Test system: Escherichia coli
measurementNotes: Antibacterial activity against NDM-1 expressing Escherichia coli CLB30016 assessed as inhibition of bacterial growth in presence of IMI by absorbance based assay
Assay type: functional
valueKind: MITC95 (µM)
Just the number in µM, nothing appended.

Use the examples below as a reference point.
- NCCS(=O)(=O)c1ccc(-c2cccc3sc(N)nc23)c(-c2nn[nH]n2)c1S(N)(=O)=O: 0.78
- NS(=O)(=O)c1c(CC2CCNCC2)ccc(-c2ccc(C3CCNCC3)cc2)c1-c1nn[nH]n1: 2
- Cc1ccc(-c2ccc(S(=O)(=O)C3CNC3)c(S(N)(=O)=O)c2-c2nn[nH]n2)c2nc(N)[nH]c12: 1.56
- Nc1nc2c(-c3ccc(S(=O)(=O)C4CCNCC4)c(S(N)(=O)=O)c3-c3nn[nH]n3)cccc2s1: 3.13
- NS(=O)(=O)c1c(S(=O)(=O)C2CNC2)ccc(-c2ccc(C3CCNCC3)cc2)c1-c1nn[nH]n1: 0.78

Reported MITC95 ( NS(=O)(=O)c1c(S(=O)(=O)C2CCNCC2)ccc(-c2ccc(C3CCNCC3)cc2)c1-c1nnn[nH]1 ) = 1.56

Reported MITC95 ( Cc1ccc(-c2cccc(S(N)(=O)=O)c2-c2nnn[nH]2)cc1 ) = 1.5

Reported MITC95 ( NS(=O)(=O)c1c(C(F)(F)F)ccc(-c2ccc(C3CCNCC3)cc2)c1-c1nn[nH]n1 ) = 0.7

###

measurementNotes: Cmax in rhesus monkey at 1 mg/kg, iv
Assay type: ADME, organism-based, Macaca mulatta
studyConditions: in vivo
valueKind: Cmax (µM)
Just the number in µM, nothing appended.

Reported Cmax ( NCCS(=O)(=O)c1ccc(-c2cccc3sc(N)nc23)c(-c2nn[nH]n2)c1S(N)(=O)=O ) = 18

###

measurementNotes: Cmax in rat at 4 mg/kg, iv
Format: ADME, organism-based
studyConditions: in vivo
valueKind: Cmax (µM)
Just the number in µM, nothing appended.

Reported Cmax ( NS(=O)(=O)c1c(S(=O)(=O)C2CNC2)ccc(-c2ccc(C3CCNCC3)cc2)c1-c1nn[nH]n1 ) = 35.7

###

measurementNotes: Cmax in rat at 30 mg/kg, iv
Assay type: ADME, organism-based
studyConditions: in vivo
valueKind: Cmax (µM)
Just the number in µM, nothing appended.

Reported Cmax ( NS(=O)(=O)c1c(CC2CCNCC2)ccc(-c2ccc(C3CCNCC3)cc2)c1-c1nn[nH]n1 ) = 459

###

measurementNotes: Inhibition of Metallo-beta-lactamase VIM-1 (unknown origin)
Design: species or system Bacteria
valueKind: pIC50
Recall that pIC50 is obtained by taking minus log10 of the concentration measured in molar.

Use the examples below as a reference point.
• NS(=O)(=O)c1c(S(=O)(=O)C2CNC2)ccc(-c2ccc(C3CCNCC3)cc2)c1-c1nn[nH]n1 = 9.70
• NS(=O)(=O)c1c(SC2CCNCC2)ccc(-c2ccc(C3CCNCC3)cc2)c1-c1nnn[nH]1 = 7.31
• Cc1ccc(-c2cccc(S(N)(=O)=O)c2-c2nnn[nH]2)cc1 = 7.24
• NS(=O)(=O)c1c(C(F)(F)F)ccc(-c2ccc(C3CCNCC3)cc2)c1-c1nn[nH]n1 = 9.52

--- query ---
Reported pIC50 ( Nc1nc2c(-c3ccc(S(=O)(=O)C4CCNCC4)c(S(N)(=O)=O)c3-c3nn[nH]n3)cccc2s1 ) = 9.59
